Percentage of cells in G0/G1 overview
System: MCF-7 cells
Test: Cell cycle analysis, propidium iodide/RNase flow cytometric assay
Format: cell-based, human
Conditions: MCF-7, 10 µM, 48 h
Method: Alterations of the cell cycle were determined by the propidium iodide (PI)-RNase flow cytometric method ([35]). MCF-7 cells were used to determine the percentage of cells in each phase of the cell cycle. […] A FACS Calibur ﬂow cytometer (BD Biosciences) was used for the assays and 20,000 events were analyzed. The number of cells distributed in sub-G1, G0/G1, S, and G2/M were determined by CellQuest software (BD, USA). […]
Measurement Type: Percentage of cells in G0/G1

- C(=NNc1nnc2c3ccccc3c3ccccc3c2n1)c1cccs1: 73.76
- N#Cc1ccc(C=NNc2nnc3c4ccccc4c4ccccc4c3n2)cc1: 71.40
- O=[N+]([O-])c1ccccc1C=NNc1nnc2c3ccccc3c3ccccc3c2n1: 69.25
- C(=NNc1nnc2c3ccccc3c3ccccc3c2n1)c1ccc[nH]1: 77.30
